Test system: LOC_OS01G21960-cb002;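 note: purified Escherichia coli-expressed rice kinase domain construct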
Test method notes: thermal shift delta Tm vs DMSO control; higher = stronger stabilization (binding)
Condition details: 12.5 µM; protein concentration 2 µM
Recorded endpoint: thermal shift delta Tm (°C)
Report the value in °C with no unit label.

// below: answered compounds
Consider the compound CN1CCN(c2ccc3nc(-c4c(N)c5c(F)cccc5[nH]c4=O)[nH]c3c2)CC1 [Dovitinib (TKI258) Lactate] and give its measured thermal shift delta Tm. 3.87

Consider the compound `COc1ccc(COc2ccc(Cc3cnc(N)nc3N)cc2OC)cc1` and give its measured thermal shift delta Tm. 0.25

Consider the compound `Cc1ccccc1-n1c(Cn2nc(-c3cccc(O)c3)c3c(N)ncnc32)nc2cccc(C)c2c1=O` and give its measured thermal shift delta Tm. 0.03

Consider the compound `Cc1cc([C@@H](C)Nc2ccccc2C(=O)O)c2nc(N3CCOCC3)cc(=O)n2c1` and give its measured thermal shift delta Tm. 1.03

***
Consider the compound `CO[C@H]1C[C@@H]2CC[C@@H](C)[C@@](O)(O2)C(=O)C(=O)N2CCCC[C@H]2C(=O)O[C@H]([C@H](C)C[C@@H]2CC[C@H](n3cnnn3)[C@H](OC)C2)CC(=O)[C@H](C)/C=C(\C)[C@@H](O)[C@@H](OC)C(=O)[C@H](C)C[C@H](C)/C=C/C=C/C=C/1C` and give its measured thermal shift delta Tm. 1.09

Consider the compound CN(C)C/C=C/C(=O)Nc1cc2c(Nc3ccc(F)c(Cl)c3)ncnc2cc1O[C@H]1CCOC1 [Afatinib (BIBW2992) Dimaleate] and give its measured thermal shift delta Tm. 1.14
